# target_under_test: UniProt:O43613
# test_description: FLIPR intracellular calcium assay, orexin receptor antagonistic activity (OX1)
# conditions: CHO cells expressing human orexin-1 receptor; agonist 3 nM orexin-A; normalized to on-plate reference; * geomean n = 5, *2 geomean n = 2
endpoint: IC50 (nM)

Sample answers from the record:
INSERT INTO measurements (compound, readout_units, recorded_value) VALUES
  ('CCCOc1ccc(CN2C(=O)[C@@H](C)OC2c2c(OC)cccc2OC)cc1 (some centres unmarked)', 'nM', 581),
  ('COc1cccc(OC)c1C1OCC(=O)N1Cc1c(C)cc(C)cc1C (centres unmarked)', 'nM', 542);

a. COc1cccc(OC)c1C1OC(C)(C)C(=O)N1Cc1nc2ccccc2s1 (centres unmarked)
b. CCOc1ccccc1C1OCC(=O)N1Cc1ccc(Cl)cc1Cl (centres unmarked)
Request: // pick larger IC50 from pair: a vs b Pick one; state its label.
Response: b

* * *

# target_under_test: human orexin-2 receptor (Homo sapiens)
# Sequence (O43614 1-444): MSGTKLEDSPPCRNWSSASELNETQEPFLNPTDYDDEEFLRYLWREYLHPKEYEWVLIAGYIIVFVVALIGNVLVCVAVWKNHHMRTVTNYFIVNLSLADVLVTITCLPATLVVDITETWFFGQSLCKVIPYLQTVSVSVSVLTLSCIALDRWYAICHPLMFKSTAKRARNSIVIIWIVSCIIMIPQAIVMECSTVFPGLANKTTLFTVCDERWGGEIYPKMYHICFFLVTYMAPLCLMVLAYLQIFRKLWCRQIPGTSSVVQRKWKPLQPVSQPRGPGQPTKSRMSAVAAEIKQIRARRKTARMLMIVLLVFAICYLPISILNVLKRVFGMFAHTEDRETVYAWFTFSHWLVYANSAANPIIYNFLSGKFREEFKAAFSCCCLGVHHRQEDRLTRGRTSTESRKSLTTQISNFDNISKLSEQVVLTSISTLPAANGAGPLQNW
# test_description: FLIPR intracellular calcium assay, orexin receptor antagonistic activity (OX2)
# conditions: CHO cells expressing human orexin-2 receptor; agonist 3 nM orexin-A; normalized to on-plate reference; * geomean n = 5, *2 geomean n = 2
endpoint: IC50 (nM)

A. COc1cccc(OC)c1C1O[C@H](C)C(=O)N1Cc1ccc(OC(F)(F)F)c(F)c1 (stereo partly drawn) [Example 55]
B. COc1cccc(OC)c1C1OCC(=O)N1Cc1c(C)cc(C)cc1C (stereo not drawn) [Example 41]
Request: // pick larger IC50 from pair: A vs B Pick one; state its label.
Response: B

A. CCOc1ccc(CN2C(=O)C(C)(C)OC2c2c(OC)cccc2OC)cc1 (stereo not drawn) [Example 80]
B. COc1cccc(OC)c1C1OC(C)(C)C(=O)N1Cc1ccc(Oc2ccc(C)nn2)cc1 (stereo not drawn) [Example 93]
Request: Lab note: check whether A or B has the lower measured IC50. Pick one; state its label.
Response: A
(A: 1940 nM, B: 8330 nM)

* * *

# target_under_test: UniProtKB O43613
# test_description: FLIPR intracellular calcium assay, orexin receptor antagonistic activity (OX1)
# conditions: CHO cells expressing human orexin-1 receptor; agonist 3 nM orexin-A; normalized to on-plate reference; * geomean n = 5, *2 geomean n = 2
endpoint: IC50 (nM)

Sample answers from the record:
INSERT INTO results (compound, recorded_value) VALUES
  ('COc1cccc(Cl)c1C1OC(C)(C)C(=O)N1Cc1ccc(Oc2ccccc2)cc1 (stereo not drawn)', 204),
  ('CCCOc1ccc(CN2C(=O)COC2c2c(OC)cccc2OC)cc1 (stereo not drawn)', 1710),
  ('COc1cccc(OC)c1C1O[C@H](C)C(=O)N1Cc1nc2ccccc2s1 (stereo partly drawn)', 2870);

P. CCOc1ccccc1C1OCC(=O)N1Cc1ccc(C(F)(F)F)cc1 (stereo not drawn)
Q. COc1cccc(OC)c1C1OC(C)(C)C(=O)N1Cc1ccc2c(c1)OCO2 (stereo not drawn)
Request: Lab note: check whether P or Q has the lower measured IC50. Pick one; state its label.
Response: Q
(Q: 150 nM, P: 9990 nM)

P. COc1cccc(OC)c1C1O[C@H](C)C(=O)N1Cc1ccc(OCC2CC2)cc1 (stereo partly drawn)
Q. COc1cccc(OC)c1C1O[C@H](C)C(=O)N1Cc1ccc(OC(F)(F)F)c(Cl)c1 (stereo partly drawn)
R. CCOc1ccccc1C1OCC(=O)N1Cc1ccc(Cl)c(F)c1 (stereo not drawn)
S. COc1cccc(OC)c1C1OCC(=O)N1Cc1ccc(OCC2CC2)cc1 (stereo not drawn)
T. COc1cccc(OC)c1C1OC(C)(C)C(=O)N1Cc1nc2ccccc2o1 (stereo not drawn)
Request: Put these in order: smallest IC50 first, largest last. Please express your ranking as an ordered list of the labels.
Response: Q, P, T, S, R
(Q: 164 nM, P: 1760 nM, T: 2940 nM, S: 6320 nM, R: 9370 nM)

* * *

# target_under_test: human orexin-1 receptor (Homo sapiens, UniProt O43613)
# Sequence (O43613 whole entry): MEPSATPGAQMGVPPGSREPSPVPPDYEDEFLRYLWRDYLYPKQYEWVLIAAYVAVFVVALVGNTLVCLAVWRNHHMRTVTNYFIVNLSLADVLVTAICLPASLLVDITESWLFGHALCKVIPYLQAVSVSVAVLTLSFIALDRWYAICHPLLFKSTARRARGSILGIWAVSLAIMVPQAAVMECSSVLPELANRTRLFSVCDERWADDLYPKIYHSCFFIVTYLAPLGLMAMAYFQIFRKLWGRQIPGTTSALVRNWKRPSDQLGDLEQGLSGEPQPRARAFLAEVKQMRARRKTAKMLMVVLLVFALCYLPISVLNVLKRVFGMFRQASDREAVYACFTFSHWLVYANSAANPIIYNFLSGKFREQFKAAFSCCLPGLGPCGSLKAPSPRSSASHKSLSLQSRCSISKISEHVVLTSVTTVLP
# test_description: FLIPR intracellular calcium assay, orexin receptor antagonistic activity (OX1)
# conditions: CHO cells expressing human orexin-1 receptor; agonist 3 nM orexin-A; normalized to on-plate reference; * geomean n = 5, *2 geomean n = 2
pIC50: −log10 of the molar value.
endpoint: pIC50

Sample answers from the record:
INSERT INTO assay_data (compound, recorded_value) VALUES
  ('COc1cccc(OC)c1C1OC(C)(C)C(=O)N1Cc1ccc(OC(F)(F)F)c(F)c1 (stereo not drawn) [Example 67]', 7.60),
  ('CCOc1ccccc1C1OCC(=O)N1Cc1cc(C)ccc1C(F)(F)F (stereo not drawn) [Example 28]', 5.10),
  ('CCOc1ccccc1C1OCC(=O)N1Cc1ccc(Cl)cc1F (stereo not drawn) [Example 19]', 5.02),
  ('COc1cccc(OC)c1C1O[C@@H](C)C(=O)N1Cc1ccc(Oc2ccccc2)cc1 (stereo partly drawn) [Example 59]', 5.67),
  ('CCOc1ccccc1C1OCC(=O)N1Cc1ccc(C)c(Cl)c1 (stereo not drawn) [Example 31]', 5.12);

1. CC1(C)OC(c2c(F)cccc2F)N(Cc2ccc(OC(F)(F)F)c(Cl)c2)C1=O (stereo not drawn) [Example 82]
2. CCOc1ccc(CN2C(=O)C(C)(C)OC2c2c(OC)cccc2OC)cc1 (stereo not drawn) [Example 80]
Request: Lab note: check whether 1 or 2 has the lower measured pIC50. Pick one; state its label.
Response: 1
(1: 6.47, 2: 6.86)

* * *

# target_under_test: human orexin-1 receptor (Homo sapiens, UniProt O43613)
# test_description: FLIPR intracellular calcium assay, orexin receptor antagonistic activity (OX1)
# conditions: CHO cells expressing human orexin-1 receptor; agonist 3 nM orexin-A; normalized to on-plate reference; * geomean n = 5, *2 geomean n = 2
endpoint: IC50 (µM)

Sample answers from the record:
INSERT INTO results (molecule, endpoint, recorded_value) VALUES
  ('COc1cccc(OC)c1C1OC(C)(C)C(=O)N1Cc1ccc(Oc2ccccc2)cn1 (stereo not shown)', 'IC50', 0.413),
  ('CCOc1ccccc1C1OCC(=O)N1Cc1ccc(Cl)c(C(F)(F)F)c1 (stereo not shown)', 'IC50', 6.49),
  ('COc1cccc(OC)c1C1OCC(=O)N1Cc1ccc(F)c(Cl)c1 (stereo not shown)', 'IC50', 1.34),
  ('CCCOc1ccc(CN2C(=O)C(C)(C)OC2c2c(OC)cccc2OC)cc1 (stereo not shown)', 'IC50', 0.114),
  ('CCOc1ccccc1C1OCC(=O)N1Cc1cccc(C(F)(F)F)c1C (stereo not shown)', 'IC50', 5.41),
  ('COc1cccc(OC)c1C1OCC(=O)N1Cc1ccc(Oc2ccccc2)cc1 (stereo not shown)', 'IC50', 1.18),
  ('COc1cccc(OC)c1C1OC(C)(C)C(=O)N1Cc1ccc(Oc2ccc(C)nn2)cc1 (stereo not shown)', 'IC50', 1.2),
  ('COc1cccc(F)c1C1OC(C)(C)C(=O)N1Cc1ccc(Oc2ccccc2)cc1 (stereo not shown)', 'IC50', 0.421),
  ('COc1cccc(OC)c1C1OCC(=O)N1Cc1cccc(OC(F)(F)F)c1 (stereo not shown)', 'IC50', 2.89),
  ('COc1cccc(OC)c1C1OC(C)(C)C(=O)N1Cc1ccc(Oc2cnccn2)cc1 (stereo not shown)', 'IC50', 1.21);

A. COc1cccc(C(F)(F)F)c1C1OC(C)(C)C(=O)N1Cc1ccc(Oc2ccccc2)cc1 (stereo not shown)
B. COc1cccc(OC)c1C1OCC(=O)N1Cc1ccc(OC(F)(F)F)c(F)c1 (stereo not shown)
C. CCOc1cccc(OC)c1C1OC(C)(C)C(=O)N1Cc1ccc(Oc2ccccc2)cc1 (stereo not shown)
D. COc1cccc(OC)c1C1OCC(=O)N1Cc1ccc(OC(F)(F)F)cc1 (stereo not shown)
E. COc1cccc(OC)c1C1OCC(=O)N1Cc1cc(C(F)(F)F)cc(Cl)c1F (stereo not shown)
Request: Descending sort on IC50 required. Please express your ranking as an ordered list of the labels.
Response: D, A, B, E, C

Cited source: patent US8329706B2
